biological target: mouse Tas2r105 (Mus musculus); construct: expressed in transfected cells; host or cells: HEK293T-Gα16gust44; test: Calcium imaging assay (FLIPR), HEK293T-Gα16gust44 cells transfected with mouse Tas2r105; type: cell-based; details: Time 136.781 s
RLU values by entry
Report the value in RLU with no unit label.

Some compounds with recorded RLU:
| chemSmiles | measurementUnits | recordedValue |
| --- | --- | --- |
| C[C@H](CCC(=O)O)[C@H]1CC[C@H]2[C@@H]3[C@H](O)C[C@@H]4C[C@H](O)CC[C@]4(C)[C@H]3C[C@H](O)[C@]12C | RLU | 500.116 |
| C[C@H](CCC(=O)O)[C@H]1CC[C@H]2[C@@H]3CC[C@@H]4C[C@H](O)CC[C@]4(C)[C@H]3C[C@H](O)[C@]12C | RLU | 194.619 |
| C[C@H](CCC(=O)O)[C@H]1CC[C@H]2[C@@H]3CC[C@@H]4C[C@H](O)CC[C@]4(C)[C@H]3CC[C@]12C | RLU | 279.582 |

# RLU lookup, item C[C@H](CCC(=O)NCC(=O)O)[C@H]1CC[C@H]2[C@@H]3[C@H](O)C[C@@H]4C[C@H](O)CC[C@]4(C)[C@H]3C[C@H](O)[C@]12C
519.874

###

RLU, fluorescence trace values by entry
biological target: human TAS2R4 (Homo sapiens, UniProt Q9NYW5); construct: expressed in transfected cells; host or cells: HEK293T-Gα16gust44; test: Calcium imaging assay (FLIPR), HEK293T-Gα16gust44 cells transfected with human TAS2R4; format: cell-based; settings: Time (s) 44.781 (TCA, TLCA: 44.782); note: test concentration or dose not given here
Sequence (Q9NYW5 whole entry): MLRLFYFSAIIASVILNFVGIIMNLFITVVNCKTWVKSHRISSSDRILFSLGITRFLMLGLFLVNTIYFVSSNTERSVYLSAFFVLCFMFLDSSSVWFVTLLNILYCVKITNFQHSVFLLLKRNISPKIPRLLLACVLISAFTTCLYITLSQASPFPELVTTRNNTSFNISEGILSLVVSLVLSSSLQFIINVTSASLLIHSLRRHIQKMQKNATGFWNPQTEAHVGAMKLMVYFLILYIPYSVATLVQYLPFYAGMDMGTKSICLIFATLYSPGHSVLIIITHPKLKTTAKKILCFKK
Report the value in RLU with no unit label.

Some molecules with recorded RLU, fluorescence trace:
| chemSmiles | RLU, fluorescence trace [RLU] |
| --- | --- |
| C[C@H](CCC(=O)NCCS(=O)(=O)O)[C@H]1CC[C@H]2[C@@H]3[C@H](O)C[C@@H]4C[C@H](O)CC[C@]4(C)[C@H]3C[C@H](O)[C@]12C | 475.477 |
| C[C@H](CCC(=O)O)[C@H]1CC[C@H]2[C@@H]3CC[C@@H]4C[C@H](O)CC[C@]4(C)[C@H]3C[C@H](O)[C@]12C | 289.793 |

# RLU, fluorescence trace lookup, item C[C@H](CCC(=O)NCCS(=O)(=O)O)[C@H]1CC[C@H]2[C@@H]3CC[C@@H]4C[C@H](O)CC[C@]4(C)[C@H]3CC[C@]12C
218.413

###

Molecular target: human TAS2R1 (Homo sapiens, UniProt Q9NYW7)
Construct: expressed in transfected cells; host or cells: HEK293T-Gα16gust44
Sequence (Q9NYW7 1-299): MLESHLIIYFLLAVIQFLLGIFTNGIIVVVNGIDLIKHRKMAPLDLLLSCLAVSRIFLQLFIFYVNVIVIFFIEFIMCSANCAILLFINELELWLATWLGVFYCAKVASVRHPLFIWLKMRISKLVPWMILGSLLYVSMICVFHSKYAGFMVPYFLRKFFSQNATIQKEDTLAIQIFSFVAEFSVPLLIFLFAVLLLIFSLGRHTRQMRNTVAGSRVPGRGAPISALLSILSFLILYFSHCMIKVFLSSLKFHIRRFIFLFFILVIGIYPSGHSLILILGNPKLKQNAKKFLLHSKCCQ
Experiment: Calcium imaging assay (FLIPR), HEK293T-Gα16gust44 cells transfected with human TAS2R1
Assay type: cell-based
Conditions: Time 122.781 s
RLU values by entry
Report the value in RLU with no unit label.

| molecule | RLU, RLU |
| --- | --- |
| C[C@H](CCC(=O)NCCS(=O)(=O)O)[C@H]1CC[C@H]2[C@@H]3[C@H](O)C[C@@H]4C[C@H](O)CC[C@]4(C)[C@H]3C[C@H](O)[C@]12C [Taurocholic Acid, taurocholic acid] | 288.825 |

# RLU lookup, item C[C@H](CCC(=O)NCCS(=O)(=O)O)[C@H]1CC[C@H]2[C@@H]3CC[C@@H]4C[C@H](O)CC[C@]4(C)[C@H]3CC[C@]12C [Taurolithocholic Acid, taurolithocholic acid]
518.27

# RLU lookup, item C[C@H](CCC(=O)O)[C@H]1CC[C@H]2[C@@H]3CC[C@@H]4C[C@H](O)CC[C@]4(C)[C@H]3C[C@H](O)[C@]12C [Deoxycholic Acid, deoxycholic acid]
360.498

# RLU lookup, item C[C@H](CCC(=O)NCC(=O)O)[C@H]1CC[C@H]2[C@@H]3[C@H](O)C[C@@H]4C[C@H](O)CC[C@]4(C)[C@H]3C[C@H](O)[C@]12C [Glycocholic Acid, glycocholic acid]
430.145

###

Molecular target: human TAS2R14 (Homo sapiens)
Construct: expressed in transfected cells; host or cells: HEK293T-Gα16gust44
Sequence (Q9NYV8 whole entry): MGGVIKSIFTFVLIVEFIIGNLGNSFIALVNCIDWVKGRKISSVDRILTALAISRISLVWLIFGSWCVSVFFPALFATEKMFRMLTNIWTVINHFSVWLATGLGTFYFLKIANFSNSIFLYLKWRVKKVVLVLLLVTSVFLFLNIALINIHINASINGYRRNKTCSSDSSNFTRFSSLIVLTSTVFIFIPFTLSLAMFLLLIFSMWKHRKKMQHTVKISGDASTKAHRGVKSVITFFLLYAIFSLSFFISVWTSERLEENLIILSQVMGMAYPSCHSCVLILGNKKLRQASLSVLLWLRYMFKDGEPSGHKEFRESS
Experiment: Calcium imaging assay (FLIPR), HEK293T-Gα16gust44 cells transfected with human TAS2R14
Format: cell-based
Conditions: TAS2R14 trace; Time (s) 239.578 (Taurocholic Acid 239.563, Chenodeoxycholic Acid 239.546)
Description: This set of bile acids was chosen because of their commercial availability in high purities, their diversity within the class of bile acids and their previous detection and quantitation in human blood. Stock solutions were prepared in DMSO. […] Measured data were negative control corrected by subtracting the signal of the mock-transfected cells and exported to Microsoft Excel using the FLIPR software ScreenWorks 4.2. […]
valueType: RLU (RLU)
Report the value in RLU with no unit label.

Some compounds with recorded RLU:
| chemSmiles | RLU [RLU] |
| --- | --- |
| C[C@H](CCC(=O)NCCS(=O)(=O)O)[C@H]1CC[C@H]2[C@@H]3[C@H](O)C[C@@H]4C[C@H](O)CC[C@]4(C)[C@H]3C[C@H](O)[C@]12C | 342.018 |
| C[C@H](CCC(=O)NCCS(=O)(=O)O)[C@H]1CC[C@H]2[C@@H]3CC[C@@H]4C[C@H](O)CC[C@]4(C)[C@H]3CC[C@]12C | 121.06 |
| C[C@H](CCC(=O)NCC(=O)O)[C@H]1CC[C@H]2[C@@H]3[C@H](O)C[C@@H]4C[C@H](O)CC[C@]4(C)[C@H]3C[C@H](O)[C@]12C | 433.467 |
| C[C@H](CCC(=O)O)[C@H]1CC[C@H]2[C@@H]3[C@H](O)C[C@@H]4C[C@H](O)CC[C@]4(C)[C@H]3CC[C@]12C | 183.585 |

// next item, RLU requested
Kindly state the measured RLU obtained for C[C@H](CCC(=O)O)[C@H]1CC[C@H]2[C@@H]3[C@H](O)C[C@@H]4C[C@H](O)CC[C@]4(C)[C@H]3C[C@H](O)[C@]12C with human TAS2R14 (Homo sapiens).
477.512

###

Molecular target: human TAS2R1 (Homo sapiens, UniProt Q9NYW7)
Construct: expressed in transfected cells; host or cells: HEK293T-Gα16gust44
Sequence (Q9NYW7 1-299): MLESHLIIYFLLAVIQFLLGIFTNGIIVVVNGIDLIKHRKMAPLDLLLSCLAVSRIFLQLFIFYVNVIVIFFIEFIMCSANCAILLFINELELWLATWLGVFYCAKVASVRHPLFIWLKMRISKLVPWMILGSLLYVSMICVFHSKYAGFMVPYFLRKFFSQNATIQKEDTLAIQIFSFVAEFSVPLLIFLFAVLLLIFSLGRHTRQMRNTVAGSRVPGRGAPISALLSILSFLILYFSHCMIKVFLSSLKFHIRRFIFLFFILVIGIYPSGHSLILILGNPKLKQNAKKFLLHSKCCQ
Assay: Calcium imaging assay (FLIPR), HEK293T-Gα16gust44 cells transfected with human TAS2R1
Assay type: cell-based
Conditions: calcium trace, sheet TAS2R1; Time 317.562 s
RLU values by entry
Report the value in RLU with no unit label.

Some molecules with recorded RLU:
| chemSmiles | RLU (RLU) |
| --- | --- |
| C[C@H](CCC(=O)O)[C@H]1CC[C@H]2[C@@H]3[C@@H](O)C[C@@H]4C[C@H](O)CC[C@]4(C)[C@H]3CC[C@]12C | -15.7818 |
| C[C@H](CCC(=O)O)[C@H]1CC[C@H]2[C@@H]3[C@H](O)C[C@@H]4C[C@H](O)CC[C@]4(C)[C@H]3C[C@H](O)[C@]12C | -12.8001 |
| C[C@H](CCC(=O)O)[C@H]1CC[C@H]2[C@@H]3CC[C@@H]4C[C@H](O)CC[C@]4(C)[C@H]3CC[C@]12C | 242.237 |

// next item, RLU requested
# RLU lookup, item C[C@H](CCC(=O)O)[C@H]1CC[C@H]2[C@@H]3[C@H](O)C[C@@H]4C[C@H](O)CC[C@]4(C)[C@H]3CC[C@]12C
144.044

###

Target: mouse Tas2r105 (Mus musculus, UniProt Q9JKT4)
Construct: expressed in transfected cells; host or cells: HEK293T-Gα16gust44
Sequence (Q9JKT4 whole entry): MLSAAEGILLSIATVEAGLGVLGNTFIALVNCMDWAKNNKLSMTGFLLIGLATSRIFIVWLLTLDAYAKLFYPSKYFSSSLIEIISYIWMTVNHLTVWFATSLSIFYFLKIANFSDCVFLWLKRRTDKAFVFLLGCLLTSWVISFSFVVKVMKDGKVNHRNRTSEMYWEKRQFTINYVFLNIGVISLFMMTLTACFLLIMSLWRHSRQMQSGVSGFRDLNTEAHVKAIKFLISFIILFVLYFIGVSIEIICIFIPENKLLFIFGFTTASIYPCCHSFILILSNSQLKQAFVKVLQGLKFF
Assay: Calcium imaging assay (FLIPR), HEK293T-Gα16gust44 cells transfected with mouse Tas2r105
Format: cell-based
Settings: Time 114.781 s
Experimental: This set of bile acids was chosen because of their commercial availability in high purities, their diversity within the class of bile acids and their previous detection and quantitation in human blood. Stock solutions were prepared in DMSO. […] Measured data were negative control corrected by subtracting the signal of the mock-transfected cells and exported to Microsoft Excel using the FLIPR software ScreenWorks 4.2. […]
RLU values by entry
State the result as a value with its unit after it.

Kindly state the measured RLU obtained for C[C@H](CCC(=O)O)[C@H]1CC[C@H]2[C@@H]3CC[C@@H]4C[C@H](O)CC[C@]4(C)[C@H]3CC[C@]12C with mouse Tas2r105 (Mus musculus, UniProt Q9JKT4).
243.367 RLU

Kindly state the measured RLU obtained for C[C@H](CCC(=O)O)[C@H]1CC[C@H]2[C@@H]3[C@H](O)C[C@@H]4C[C@H](O)CC[C@]4(C)[C@H]3C[C@H](O)[C@]12C with mouse Tas2r105 (Mus musculus, UniProt Q9JKT4).
548.979 RLU

Kindly state the measured RLU obtained for C[C@H](CCC(=O)O)[C@H]1CC[C@H]2[C@@H]3CC[C@@H]4C[C@H](O)CC[C@]4(C)[C@H]3C[C@H](O)[C@]12C with mouse Tas2r105 (Mus musculus, UniProt Q9JKT4).
167.002 RLU

Kindly state the measured RLU obtained for C[C@H](CCC(=O)NCC(=O)O)[C@H]1CC[C@H]2[C@@H]3[C@H](O)C[C@@H]4C[C@H](O)CC[C@]4(C)[C@H]3C[C@H](O)[C@]12C with mouse Tas2r105 (Mus musculus, UniProt Q9JKT4).
517.173 RLU
